test: soluble on expression in E. coli; label from the status in PepcDB or PDB records
quantityName: soluble on expression in E. coli

INSERT INTO results (residuestring, quantityname, measurement) VALUES
  ('MVAIDYVVIGAGYAGLMCAEALMDKGFKTLVFDMRESGGEIVVFSKLEEFRSKYEKYIEKIEEIRKDIPVDIGTVIKSKPVIINSGNGLKRYEARRVILATGATDTAPVKLNVLSKKIEGIYTLENALREISENNKIGEKVLIAAKDDVIVKLAESQLSDLGYDVEISELTNDIQVIGKERVEGVEISGVRYSCDTLVVYGGRNPFNPLKLRGTPVGNVVTCTYDYSKVEENVKNFLAKILEHHHHHH', 'soluble on expression in E. coli', 'not soluble'),
  ('MDEQVIKKVVEDVLKKVGIEQKEENKANRGEPVITNPGLTEFVGTALGDTIGLVIANVDASLHEKMGIDPKYRSIGIIGGRTGAGPQIMAADEAVKATNTEVVAIELPRDTKGGAGHGNLIIFGAEEVSDARRAVEVALKELRRTFGDVYVNEAGHLEFQYTARASYALQKAFGAPLGKAFGLIVGAPAAIGVLCCDTAVKAAEVEVIGYASPAKGTSMTNEAILFISGDSGAVRQAIIAAREVGLKLLSTLGEAPKSLSGEPYI', 'soluble on expression in E. coli', 'not soluble');

----------
experiment: soluble on expression in E. coli; label from the status in PepcDB or PDB records
quantityName: soluble on expression in E. coli

INSERT INTO measurements (residuestring, measurement) VALUES
  ('MGSDKIHHHHHHMQIAVSGGKGGTGKSTVAINLAVELAKKFKLVLADLDVEAPNDHLLLGVELQNEREVHQFMPKFNYSKCIKCRKCAEACEEHAIVTLRDGTPFLMPTLCSGCRACEIVCPVPGAIEEGSRLIGHTYETLTPYGFTLVTGKLREGEERSMPLVVAAKRRAKELKWDLLIVDTAAGTGNTVSKAIEGSQLLIAVTEPTPLGIHDTELILKLGELMRIETWIVINRSDLGDVKEVYRRAKKYNAEVIAEIPYSENIVKTYVAGKPIVTTDYPEAGIFREIAEKVYEFLR', 'not soluble'),
  ('MGHHHHHHSHMVSTATHSLSRLHTMLTGLRNAPSEKLEQILRTCSRDPTQAIANRLKEMFEIYSQHFQPDEDFSNCAKEIASKHFRFAEMLYYKVLESVIEQEQKRLGDMDLSGILEQDAFHRSLLACCLEVVTFSYKPPGNFPFITEIFDVPLYHFYKVIEVFIRAEDGLCREVVKHLNQIEEQILDHLAWKPES', 'not soluble'),
  ('MNPGKPMPLVVHGWTIFAHPLFLAQIEVLIQQVEAHKQKDPVGFVKKNASKRLAAITKLAFDIILQDPARPEYRQGGTLGDDYKHWFRAKFFQQYRLFFRYHTLSKVIVFAWVNDEDTRRAYESSDDAYRMFRKMLENGLPPDDWNQLLAEARAEGQRLQQFAARWW', 'not soluble');

----------
assay: soluble on expression in E. coli; label from the status in PepcDB or PDB records
quantityName: soluble on expression in E. coli

INSERT INTO measurements (residuestring, measurement) VALUES
  ('MSLSSVYTMKRIWLQKDKKAYQAWHELMEKAELQTTEALDYTVGIYDDTALIASGSLSGKTIKCVAVCKKYQSENLLTQLVVHLLEKLREENQLHSFLYTKPKNEQIFQSLGFQKVVANQEVLFMEQGKPDFADYLGYLTQHKKAGPASSIVMNANPFTKGHQYLVEKAAQESPHVYVFVLSEDKSLFSKEARFAMVQKGVAHLPNVTVLSTEDYLVSSATFPTYFLKEKAPLEVAAIQATLDATLFKERIAPILEIQQRYVGEEPYSEVTAVYNQAMQQVFGQTITLTIVPRLASDGELISATKVRKAMAEGDKETLKKFLPATSYQYLVEHKKLMREGGSHHHHHH', 'soluble'),
  ('MEGSHHHHHHSQAQSKAQVLQSVAGQTLTVRCQYPPTGSLYEKKGWCKEASALVCIRLVTSSKPRTMAWTSRFTIWDDPDAGFFTVTMTDLREEDSGHYWCRIYRPSDNSVSKSVRFYLVVS', 'soluble'),
  ('MGNSSSLMLRDEEIEEIMSETEFNRNQIVRLYSRFLSLDKKGQGFLSRDDFLNVPELAVNPLGDRIVDAFFTLASSNGDNEEQQLNFRQFVRILAHFQPISRVKKNALNSRKDKLLFAFKMYDLNKNDYITREEFKVILNSMVGANITSDQLDKIADRTIEEADADRDGKISFDEFCRAMEKTDIEEKMSIRFLN', 'soluble'),
  ('MKTLLPTSTAGSLPKPSWLAEPEKLWSPWKLQGEELIDGKRDALRVALQEQELAGVDIVSDGEQTRQHFVTTFIEHLSGVDFENRKTVTIRNRYEASVPTVVGPVSRTKPVFVEDAKFLRQQTKQPIKWALPGPMTMIDTLYDDHYGSREKLAWEFAKILNQEAKELEAAGVDIIQFDEPAFNVFFDDVNEWGIACLERAIEGLKCETAVHICYGYGIKANTDWKQTLGTEWRQYEEVFPKLQQSNIDIISLECHNSRVPIELLELIRGKKVMVGAIDVATNEIETPEEVANTLREALKYVDADKLYPCTNCGMAPLSREVSTAKLNALSAGAEIVRRELSALEHHHHHH', 'not soluble'),
  ('GPGSMVNATPDMARYCCAVIHSKLRGEKTPEPPASITNEPSPIFVSLKTLDGDLRGCIGNFSAEPLHKQLRDYAVAAAFQDNRFPSVTLAELPMLSCSVCLLHSFEKAHRWDDWEIGVHGIRIRYKNYSATYLPSVMPEQRWDHIQAIRSLMRKAGCGEEVSDAILNELDVTRYQESKSTVAFKSANLGSLPC', 'soluble');

// moving on: another record for soluble on expression in E. coli
// query Query (sequence): MAHHHHHHMSSAHKPTTQEAINFFKQYREKFQRSSSGGNSPSQNSVNASPQQNIVTQVQQVDVVPDLTTRSIIPMNRRNGTTTTRLDLLRKSPTNCSPCLVQEVEIKPLLPPLPFASVPKVTLVLDVDETLVHSTFQPSSDVVYDKVLLVPSEGKTYTVSVKYRPYLEDFLRFVSRRFEVVIFTASMRAYCDKLMDEIDPHGILGNLRLFREHCTFSERSYVKDLHRLGRDLRRVVILDNSPAAYSFQQRNAIPIKTWINDPKDRELFLLLPLLDRLAMCDSVYSELDPYNARGCDYL ; field requested: soluble on expression in E. coli
// result not soluble

----------
experiment: soluble on expression in E. coli; label from the status in PepcDB or PDB records
quantityName: soluble on expression in E. coli

Solved entries:
INSERT INTO measurements (residuestring, quantityname, measurement) VALUES
  ('AHHHHHHGSNRKLDEFLGSNDPPATKEENQKVKKKQRLRATNLDEFLPEDHINFFKNLRIGSKKIARKKIEEL', 'soluble on expression in E. coli', 'not soluble'),
  ('MSLSLKLPKADRSIETYRLAASRTFPARLEGPLNRIAFSAVHTVADPFADNDPWLSVAVDWDKTIAFREHVWDLGLGVAEAMDTAQRGMGLDWPTSLELITRSVAAAKRRNALVFSGAGTDHLAVEDARTVDDVIRAYEEQISAVEKVGGRIILMASRALAKLGRNADDYAKVYDRVLSQVREPVIIHWLGDMFDPALTGYWGTKDLDKAMDVAVAVINANAAKVDGVKVSLLDKQREIDMRRRLDKRIRMYTGDDFNYAELIAGDSQGFSHALLGIFDAIAPAASYALSRLAAGDEAGFHDVLGPTVPLSRHIFKAPTRFYKTGVVFMAYLNGHQDHFTMVGGQESARSMLHLAELFRLADQAGLLANPELATRRMTTVLASHGIESEGHHHHHH', 'soluble on expression in E. coli', 'soluble'),
  ('LRGFIIGRFQPFHKGHLEVIKKIAEEVDEIIIGIGSAQKSHTLENPFTAGERILMITQSLKDYDLTYYPIPIKDIEFNSIWVSYVESLTPPFDIVYSGNPLVRVLFEERGYEVKRPEMFNRKEYSGTEIRRRMLNGEKWEHLVPKAVVDVIKEIKGVERLRKLAQTDK', 'soluble on expression in E. coli', 'soluble'),
  ('MNNIENVDQKLIENLANLMSSEVRAKIYIYLRKYNKSTVDEIAGGTGIYPSTVRESILDMYNTGYVSREKMDKEGLGKKPYLYTAAAPSEIVRKISKNIQEKLNDLIMVDRRIESKELKIPFVPVKIVVDEKYRD', 'soluble on expression in E. coli', 'not soluble'),
  ('MGSDKIHHHHHHKVRPTKTTLKKDTQLYGVTIDDSWYDRTKMTDIIAALKAMPVKPTVRIVMSKDSSPKSYVNLFRKLHKVAYVMACPVDSYEMNLYKDVNSYRKRFAVAYHYLSSYTDIWEIGNEVNGTDWIKQKNTLITQKLKAVCQTISSAGGKTALTFYYENPKYDHDMIAWIKKNIPVMLRSRVDYGFISYYEDDNEGYQPDWQSVFNQLQNLFPNSNVGMGECGNTADNATENSKIAMAKRYYTMPKYTKHYVGGYFWWEWVQDCVPHENNPIYDAINKSLKK', 'soluble on expression in E. coli', 'not soluble'),
  ('MAHHHHHHMSTFARRRIIQDLNKINKEKNKSFEASPFADNIMYCHAIIRGPDDTIWECGIFHLIIHFSEEYPVSPPKLRFLSKIYHPNIYSDGNICLDILQNQWSPIYDITSILTSIQSLLNDPNTSSPANPEAARIFINNRNLYNKRVLMCVEDSWEIPKFNINNYS', 'soluble on expression in E. coli', 'not soluble');

// query // lookup soluble on expression in E. coli for MIKASLVFFAFLALASGRRHHYDYYDCEPERGPRGREGREGPRGAQGAPGPNGTGFFWPGTCEQSDCPDGWISVNRKINNDVEKKWCINMFWNQATNDLYKTSEKVCNSYGGVMTGFKDKGEFISVFALLKNRFPNIKPVSQVMIGARRLETCASISNFGNCTITKGTKWTDLVMSIDSFFNELQQSARFSPLKKCIVANPTNLKLYVANCNVLESDYPQDLFMCGRFAPCKK
// result not soluble
